experiment: LY2510924 pharmacokinetics in plasma, noncompartmental analysis; settings: human, plasma, sc, AUC (0–inf), Day 15; 20 mg/day SC, n = 3; geometric mean (CV%)
Where a SMILES comes first, the peptide text is derived from it. Bridges are numbered along the chain shown (N, C = ends). [ ]: non-standard residue; d: D form. 2Nal = N[C@@H](Cc1ccc2ccccc2c1)C(=O)O; Lys(iPr) = CC(C)NCCCC[C@H](N)C(=O)O
PARAMETER_MEASURED: AUC(0-inf) (ng·h/mL)

>>> quantitative_result("CC(C)NCCCC[C@H](NC(=O)[C@H]1CCC(=O)N[C@@H](Cc2ccccc2)C(=O)N[C@@H](Cc2ccc(O)cc2)C(=O)N[C@@H](CCCCNC(C)C)C(=O)N[C@H](CCCNC(=N)N)C(=O)N[C@@H](Cc2ccc3ccccc3c2)C(=O)NCC(=O)N1)C(N)=O [LY2510924] (FY[Lys(iPr)][dR][2Nal]G[dE][Lys(iPr)]-NH2; lactam N-7)")
1960
